- tested.system: MDM2_(L. camtschaticum) SWIB domain (arctic lamprey (Lethenteron …))
- Sequence (chain, as listed by the source): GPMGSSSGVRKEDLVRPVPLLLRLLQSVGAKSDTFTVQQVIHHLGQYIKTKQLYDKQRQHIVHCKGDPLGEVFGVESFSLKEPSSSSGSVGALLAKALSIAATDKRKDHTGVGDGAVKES
- procedure.summary: fluorescence polarisation; displacement: FITC-labeled human p53TAD 15–26 (6 or 10 nM) and MDM2 constant, dilution series of unlabeled peptide; K D calculated from IC50; room temperature, same buffer as the kinetics
- condition.summary: both partners purified
Ends that are not written are not given here.
quantity.kind: Kd (µM)

- binder: "CVDDFDRVWQGGV (not fully specified (N-terminus); also: acetylated, site not given here) [p53TAD_(L. camtschaticum)]"
  quantity.kind: "Kd"
  recorded.result: 250
